system: BT-549 breast; assay: NCI tumour cell line growth inhibition, 48 h
Entries annotated with measured TGI
measure: TGI

CC(C)CC(=O)NC(NC(C)C)(C(F)(F)F)C(F)(F)F	> 100 µM
CCCCCC(=O)OCC1(CO)C/C(=C\CC(C(C)C)C(C)C)C(=O)O1 (stereo not given)	> 100 µM
N#CC1CCN2N=C(c3ccccc3)SC12c1ccccc1 (stereo not given)	> 100 µM
Cc1ccc2c(=O)c(-c3nnc(N)s3)c[nH]c2n1	> 100 µM
CN1CCN(Cc2ccc(NC(=O)c3ccc(C#N)c(C#Cc4cnc(N)c5ncccc45)c3)cc2C(F)(F)F)CC1	41.9 µM
COC(=NCCC1=CCCCC1)OC	> 100 µM
CO/N=C1/c2sccc2[C@H](NC(=O)C(F)(F)F)[C@@H]1O	> 100 µM
O=c1[nH]c(SCc2c(Cl)c(Cl)c(Cl)c(Cl)c2Cl)nc(=S)[nH]1	> 100 µM
CC1OC(OC2CC(O)C3(CO)C4C(O)CC5(C)C(C6=CC(=O)OC6)CCC5(O)C4CCC3(O)C2)C(O)C(O)C1O (stereo not given)	0.0208 µM
CN(C)c1ccc(/C=C(\NC(=O)c2ccccc2)C(=O)Nc2ccccc2C(=O)O)cc1	> 100 µM

----------
system: U251 CNS; experiment: NCI tumour cell line growth inhibition, 48 h
measure: TGI

C=C(C)[C@@H]1CCC2=C[C@@H](OC2=O)[C@@H](C(=C)C)C(=O)/C=C(/C)C(=O)C1	> 100 µM
O=C(O)CCC1(Br)CCCCC(Br)C1=O (stereo unspecified)	> 100 µM
O=c1cc(-c2ccccc2)oc2ccc(Oc3nnnn3-c3ccccc3)cc12	> 74.7 µM
NCC(NC(=O)OCc1ccccc1)C(=O)O (stereo unspecified)	> 50 µM
COc1cccc(C2NC(=S)NC(C)=C2C(=O)Nc2ccc(F)c(Cl)c2)c1 (stereo unspecified)	> 50 µM
N#CC(C#N)=CSc1ccccc1	52.4 µM
COc1ccc(C(C2C(=O)N(C)C(=O)N(C)C2=O)C(F)(F)C(=O)N(C)C)cc1 (stereo unspecified)	> 100 µM
O=c1cc(CC(O)(C(F)(F)Cl)C(F)(F)Cl)[nH]n1-c1ccccc1	> 100 µM
C=C1Oc2nc3ccccc3c(=O)n2C1(C)C	> 100 µM
N=C(N)n1[nH]c2c(c1=O)CCCC2	> 100 µM
O=[N+]([O-])c1cccc2nc3ccccc3c(NCCCN3CCOCC3)c12	0.14 µM

----------
test system: IGROV1 ovarian; assay: NCI tumour cell line growth inhibition, 48 h
measure: TGI

C=C1CC(Cn2cc(C)c(=O)[nH]c2=O)(c2ccc(-c3ccccc3)cc2)OC1=O (stereo unspecified)	3.74 µM
O=c1cc(-c2ccccc2)oc2ccc(Oc3nnnn3-c3ccccc3)cc12	> 100 µM
COc1ccc(/C=C\c2cc(OC)c(OC)c(OC)c2)cc1OC(=O)c1cccc(Cn2cc(CCOC(=O)c3cccc(Cn4nnc5c4C(=O)c4ccccc4C5=O)c3)nn2)c1	26.4 µM
Clc1ccc(OC2CCO2)cc1Cl (stereo unspecified)	> 100 µM
COc1ccc2c(c1)nc1n2C(c2c(F)cccc2Cl)SC1 (stereo unspecified)	> 100 µM
COc1cccc(C2NC(=S)NC(C)=C2C(=O)Nc2ccc(F)c(Cl)c2)c1 (stereo unspecified)	> 50 µM

----------
Entries annotated with measured TGI
system: DLD-1 colon; assay: NCI tumour cell line growth inhibition, 48 h
Where a SMILES comes first, the peptide text is derived from it. [ ]: non-standard residue; d: D form. The star is where a group is joined. ξ: configuration not given here. NMeF = CN[C@@H](Cc1ccccc1)C(=O)O; ξNMeV = CNC(C(=O)O)C(C)C; Boc = CC(C)(C)OC(=O)*; OBn = c1ccc(CO*)cc1
measure: TGI

CCOc1ccc(N=Nc2ccc3oc(=O)c(C(=O)Nc4ccc(OC)cc4)cc3c2)cc1	61.4 µM
O=C1/C(=C/c2ccccc2)CCC/C1=C\c1ccccc1	8.83 µM
Cc1cc(C)cc(Sc2c([N+](=O)[O-])ncn2C)c1	27.5 µM
CC(C)OP(=O)(OC(C)C)/C(=N/N)NNc1ccc([N+](=O)[O-])cc1	> 100 µM
[C-]#[O+].[Cl][Sn]([Cl])[Cl].[Cl][Sn]([Cl])[Cl].[Pt].c1ccncc1	> 100 µM
CC(C)C(C(=O)N1CCC[C@@H]1C(=O)OCc1ccccc1)N(C)C(=O)C(C(C)C)N(C)C(=O)[C@H](Cc1ccccc1)N(C)C(=O)[C@H](NC(=O)OC(C)(C)C)C(C)C (stereo partly drawn) (Boc-[dV][NMeF][ξNMeV][ξNMeV][dP]-OBn)	> 100 µM
O=C1c2nn(-c3ccccc3)nc2C(c2ccccc2)N1c1ccccc1 (stereo not drawn)	> 100 µM
COc1ccc([N-]/C(=N\n2c(=O)c(C)nn(C)c2=S)N(c2ccc(OC)cc2)c2nn3c(=O)c(C)n[n+](C)c3s2)cc1	> 100 µM
